System: NIH3T3
Test protocol: Cytotoxicity against mouse NIH/3T3 cells after 96 hrs by SRB assay
Assay type: ADME, cell-based
Settings: NIH3T3, 96 h
Assay endpoint: IC50

Please review the entries below; each comes with its answer.
# Record smiles, Value reported
rows = [
    ("COC(=O)[C@]12CCC(C)(C)C[C@H]1C1=C(O)C(=O)[C@@H]3[C@@]4(C)CC[C@H](O)C(C)(C)[C@@H]4CC[C@@]3(C)[C@]1(C)CC2", "25.8 µM"),
    ("CC(=O)O[C@H]1CC[C@]2(C)[C@H]3CC(=O)[C@@H]4[C@@H]5CC(C)(C)CC[C@]5(C(=O)OCc5ccccc5)CC[C@@]4(C)[C@]3(C)CC[C@H]2C1(C)C", "> 90 µM"),
    ("COC(=O)[C@]12CCC(C)(C)C[C@H]1[C@H]1C(=O)C[C@@H]3[C@@]4(C)C[C@@H](OC(C)=O)[C@H](OC(C)=O)C(C)(C)[C@@H]4CC[C@@]3(C)[C@]1(C)CC2", "31.7 µM"),
]

Quick note, IC50 for "COC(=O)[C@]12CCC(C)(C)C[C@H]1C1=C(O)C(=O)[C@@H]3[C@@]4(C)CC[C@H](OC(C)=O)C(C)(C)[C@@H]4CC[C@@]3(C)[C@]1(C)CC2" landed at 12.5 µM

Quick note, IC50 for "CC(=O)O[C@H]1CC[C@]2(C)[C@H]3C[C@H](OC(C)=O)[C@]45OC(=O)[C@@]6(CCC(C)(C)C[C@H]64)CC[C@@]5(C)[C@]3(C)CC[C@H]2C1(C)C" landed at 7.2 µM

====

Tested on: NIH3T3
Test protocol: Cytotoxicity against mouse NIH/3T3 cells after 96 hrs by SRB assay
Assay type: ADME, cell-based
Settings: NIH3T3, 96 h
Measured pIC50, listed per entry for reference.
Hey, just a heads up that pIC50 is the negative log base 10 of the concentration in molar.

Please review the entries below; each comes with its answer.
# Record smiles, Tested target, Value reported
records = [
    ("CC1(C)CC[C@@]23CC[C@]4(C)[C@@](OC2=O)([C@@H]3C1)[C@@H](I)C[C@@H]1[C@@]2(C)C[C@@H](O)[C@H](O)C(C)(C)[C@@H]2CC[C@]14C", "NIH3T3", 4.10),
    ("COC(=O)[C@]12CCC(C)(C)C[C@H]1C1=CC[C@@H]3[C@@]4(C)CC[C@H](OC(C)=O)C(C)(C)[C@@H]4CC[C@@]3(C)[C@]1(C)CC2", "NIH3T3", 4.46),
]

We next turn to a different compound, shown below.
Quick note, pIC50 for "COC(=O)[C@]12CCC(C)(C)C[C@H]1C1=CC(=O)[C@@H]3[C@@]4(C)CC[C@H](OC(C)=O)C(C)(C)[C@@H]4CC[C@@]3(C)[C@]1(C)CC2" landed at 4.47

====

System: A2780
Test protocol: Cell cycle arrest in human A2780 cells assessed as accumulation at S phase at 30 uM by propidium iodide staining-based FACS analysis (reference value: 32.439 %)
Format: functional
Assay endpoint: Activity
# do not omit the unit; it follows the number

# Record smiles, Assay endpoint, Value reported
rows = [
    ("CC(=O)O[C@H]1CC[C@]2(C)[C@H]3CC(=O)[C@@H]4[C@@H]5CC(C)(C)CC[C@]5(C(=O)OCc5ccccc5)CC[C@@]4(C)[C@]3(C)CC[C@H]2C1(C)C", "Activity", "40.927%"),
    ("COC(=O)[C@]12CCC(C)(C)C[C@H]1[C@H]1C(=O)C[C@@H]3[C@@]4(C)CC[C@H](OC(C)=O)C(C)(C)[C@@H]4CC[C@@]3(C)[C@]1(C)CC2", "Activity", "24.431%"),
    ("COC(=O)[C@]12CCC(C)(C)C[C@H]1C1=CC[C@@H]3[C@@]4(C)CC[C@H](OC(C)=O)C(C)(C)[C@@H]4CC[C@@]3(C)[C@]1(C)CC2", "Activity", "28.805%"),
]

Quick note, Activity for "COC(=O)[C@]12CCC(C)(C)C[C@H]1C1=CC(=O)[C@@H]3[C@@]4(C)CC[C@H](OC(C)=O)C(C)(C)[C@@H]4CC[C@@]3(C)[C@]1(C)CC2" landed at 25.334%

Quick note, Activity for "CC(=O)O[C@H]1CC[C@]2(C)[C@H]3C(=O)C(O)=C4[C@@H]5CC(C)(C)CC[C@]5(C(=O)OCc5ccccc5)CC[C@@]4(C)[C@]3(C)CC[C@H]2C1(C)C" landed at 22.262%

Quick note, Activity for "CC(=O)O[C@H]1CC[C@]2(C)[C@H]3C[C@H](OC(C)=O)[C@]45OC(=O)[C@@]6(CCC(C)(C)C[C@H]64)CC[C@@]5(C)[C@]3(C)CC[C@H]2C1(C)C" landed at 27.288%

====

Test system: A2780
Test protocol: Cell cycle arrest in human A2780 cells assessed as accumulation at S phase at 30 uM by propidium iodide staining-based FACS analysis (reference value: 32.439 %)
Assay type: functional
Measured Activity, listed per entry for reference.
Write the number in % without appending the unit.

# Record smiles, Assay endpoint, Value reported
records = [
    ("COC(=O)[C@]12CCC(C)(C)C[C@H]1C1=C(O)C(=O)[C@@H]3[C@@]4(C)CC[C@H](O)C(C)(C)[C@@H]4CC[C@@]3(C)[C@]1(C)CC2", "Activity", 21.594),
]

Quick note, Activity for "CC(=O)O[C@H]1CC[C@]2(C)[C@H]3C[C@H](O)[C@]45OC(=O)[C@@]6(CCC(C)(C)C[C@H]64)CC[C@@]5(C)[C@]3(C)CC[C@H]2C1(C)C" landed at 32.261

Quick note, Activity for "COC(=O)[C@]12CCC(C)(C)C[C@H]1C1=C(O)C(=O)[C@@H]3[C@@]4(C)CC[C@H](OC(C)=O)C(C)(C)[C@@H]4CC[C@@]3(C)[C@]1(C)CC2" landed at 42.682

====

Measured IC50, listed per entry for reference.
System: NIH3T3
Test protocol: Cytotoxicity against mouse NIH/3T3 cells after 96 hrs by SRB assay
Assay type: ADME, cell-based
Settings: NIH3T3, 96 h
Write the number in µM without appending the unit.

# Record smiles, Value reported
rows = [
    ("CC(=O)O[C@H]1CC[C@]2(C)[C@H]3C[C@H](O)[C@]45OC(=O)[C@@]6(CCC(C)(C)C[C@H]64)CC[C@@]5(C)[C@]3(C)CC[C@H]2C1(C)C", 85.7),
    ("COC(=O)[C@]12CCC(C)(C)C[C@H]1[C@H]1C(=O)C[C@@H]3[C@@]4(C)CC[C@H](OC(C)=O)C(C)(C)[C@@H]4CC[C@@]3(C)[C@]1(C)CC2", 28.2),
    ("CC1(C)CC[C@@]23CC[C@]4(C)[C@@](OC2=O)([C@@H]3C1)[C@@H](O)C[C@@H]1[C@@]2(C)C[C@@H](O)[C@H](O)C(C)(C)[C@@H]2CC[C@]14C", 22.1),
]

Quick note, IC50 for "CC1(C)CC[C@]2(C(=O)O)CC[C@]3(C)C(=CC[C@@H]4[C@@]5(C)C[C@@H](O)[C@H](O)C(C)(C)[C@@H]5CC[C@]43C)[C@@H]2C1" landed at 21.4

Quick note, IC50 for "CC1(C)CC[C@]2(C(=O)O)CC[C@]3(C)C(=CC[C@@H]4[C@@]5(C)CC[C@H](O)C(C)(C)[C@@H]5CC[C@]43C)[C@@H]2C1" landed at 76.4

Quick note, IC50 for "COC(=O)[C@]12CCC(C)(C)C[C@H]1C1=CC[C@@H]3[C@@]4(C)C[C@@H](OC(C)=O)[C@H](OC(C)=O)C(C)(C)[C@@H]4CC[C@@]3(C)[C@]1(C)CC2" landed at 30.5

====

Test system: NIH3T3
Test protocol: Cytotoxicity against mouse NIH/3T3 cells after 96 hrs by SRB assay
Format: ADME, cell-based
Settings: NIH3T3, 96 h
Measured pIC50, listed per entry for reference.
Hey, just a heads up that pIC50 is the negative log base 10 of the concentration in molar.

Quick note, pIC50 for "CC1(C)CC[C@@]23CC[C@]4(C)[C@@](OC2=O)([C@@H]3C1)[C@@H](Br)C[C@@H]1[C@@]2(C)C[C@@H](O)[C@H](O)C(C)(C)[C@@H]2CC[C@]14C" landed at 4.37

Quick note, pIC50 for "CC1(C)CC[C@]2(C(=O)OCc3ccccc3)CC[C@]3(C)C(=CC[C@@H]4[C@@]5(C)CC[C@H](O)C(C)(C)[C@@H]5CC[C@]43C)[C@@H]2C1" landed at 4.65

Quick note, pIC50 for "COC(=O)[C@]12CCC(C)(C)C[C@H]1C1=CC(=O)[C@@H]3[C@@]4(C)CC[C@H](O)C(C)(C)[C@@H]4CC[C@@]3(C)[C@]1(C)CC2" landed at 4.61
